// provenance: paper PMC12136037

Target: ~100 representative kinases (Homo sapiens, UniProt P52564)
Construct: Recombinant protein kinase domains with a concentration of 2 μM
Sequence (P52564 whole entry, the tested form may be a part): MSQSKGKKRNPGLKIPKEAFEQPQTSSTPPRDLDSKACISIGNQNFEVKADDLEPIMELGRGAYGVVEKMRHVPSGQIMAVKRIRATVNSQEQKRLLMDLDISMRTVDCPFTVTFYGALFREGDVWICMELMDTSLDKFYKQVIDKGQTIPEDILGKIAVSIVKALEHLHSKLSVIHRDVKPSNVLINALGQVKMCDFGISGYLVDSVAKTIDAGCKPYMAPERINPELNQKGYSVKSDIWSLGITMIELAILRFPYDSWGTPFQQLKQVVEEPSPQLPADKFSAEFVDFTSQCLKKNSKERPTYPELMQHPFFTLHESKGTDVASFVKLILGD
Assay: DSF 100 kinase selectivity screen;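 note: compound tested at 20 µM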
Format: binding
Details: protein MAP2K6; average of three replicates
For each of the compounds below, state its dTm.
Give the number; K is assumed, so skip it.

Request: Given CCSc1nc(NC)c2c(-c3cccc(NC(=O)Nc4cc(C(C)(C)C)nn4-c4ccc(C)cc4)c3)c[nH]c2n1 [Compound 32] , report its dTm on ~100 representative kinases (Homo sapiens, UniProt P52564).
Response: 0.13

Request: Given Cc1ccc(C(=O)Nc2ccc(CN3CCN(C)CC3)c(C(F)(F)F)c2)cc1C#Cc1c[nH]c2ncnc(N3CCOCC3)c12 [Compound 1] , report its dTm on ~100 representative kinases (Homo sapiens, UniProt P52564).
Response: 3.80

Request: Given COc1cc(NC(=O)C2(C(=O)Nc3cccc(-c4c[nH]c5ncnc(N6CCOCC6)c45)c3)CC2)ccc1F [Compound 21] , report its dTm on ~100 representative kinases (Homo sapiens, UniProt P52564).
Response: 3.07

Request: Given CNC(=O)c1cc(Oc2ccc(NC(=O)Nc3cc(C(C)(C)C)nn3-c3ccc4ncccc4c3)c(F)c2)ccn1 [Rebastinib, reference compound] , report its dTm on ~100 representative kinases (Homo sapiens, UniProt P52564).
Response: 0.26

Request: Given Cc1cc(F)ccc1NC(=O)C1(C(=O)Nc2cccc(-c3c[nH]c4ncnc(N5CCOCC5)c34)c2)CC1 [Compound 24] , report its dTm on ~100 representative kinases (Homo sapiens, UniProt P52564).
Response: 3.14

Request: Given C[C@@H]1CN(c2cc(-c3n[nH]c4ccc(OC5(C)CC5)cc34)ncn2)C[C@H](C)O1 [MLi2] , report its dTm on ~100 representative kinases (Homo sapiens, UniProt P52564).
Response: 0.18

###

Molecular target: ~100 representative kinases (Homo sapiens)
Construct: Recombinant protein kinase domains with a concentration of 2 μM
Experiment: DSF 100 kinase selectivity screen;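 note: compound tested at 20 µM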
Assay type: binding
Conditions: protein FGFR1; average of three replicates
Threshold check on dTm: at or above 0.7 K gives label 1, strictly below gives label 0.

Request: Does dTm meet or surpass 0.7 K for COc1cc(NC(=O)C2(C(=O)Nc3cccc(-c4c[nH]c5ncnc(N6CCOCC6)c45)c3)CC2)ccc1F [Compound 21] ?
Response: label 1

Request: Does dTm meet or surpass 0.7 K for O=C(Nc1ccccc1)C1(C(=O)Nc2cccc(-c3c[nH]c4ncnc(N5CCOCC5)c34)c2)CC1 [Compound 12] ?
Response: label 1

Request: Does dTm meet or surpass 0.7 K for CC(C)(C)c1cccc(NC(=O)C2(C(=O)Nc3cccc(-c4c[nH]c5ncnc(N6CCOCC6)c45)c3)CC2)c1 [Compound 22] ?
Response: label 1

Request: Does dTm meet or surpass 0.7 K for O=C(Nc1cccc(-c2c[nH]c3ncnc(N4CCOCC4)c23)c1)C1(C(=O)Nc2cc(Br)c(F)cc2F)CC1 [Compound 25] ?
Response: label 0

Request: Does dTm meet or surpass 0.7 K for COc1cc2c(Oc3ccc(NC(=O)C4(C(=O)Nc5ccc(F)cc5)CC4)cc3F)ccnc2cc1OCCCN1CCOCC1 [Foretinib, reference compound] ?
Response: label 1

Request: Does dTm meet or surpass 0.7 K for O=C(Nc1cccc(-c2c[nH]c3ncnc(N4CCOCC4)c23)c1)C1(C(=O)Nc2ccc(F)c(Br)c2)CC1 [Compound 19] ?
Response: label 1

Request: Does dTm meet or surpass 0.7 K for C[C@@H]1CN(c2cc(-c3n[nH]c4ccc(OC5(C)CC5)cc34)ncn2)C[C@H](C)O1 [MLi2] ?
Response: label 0
